# assay name: physchem
# condition set: buffer, pH 6.5
measured parameter: half-life (h)
Answers are plain numbers, in h.

Would you mind giving half-life for every molecule in the list below?
1. CC(OC(=O)[C@@H](N)C(C)C)OC(=O)N1CCC(OC(=O)C(O)(c2ccccc2)c2ccccc2)CC1.Cl (stereo partly drawn)
2. CC(OC(=O)[C@@H](N)C(C)(C)C)OC(=O)N1CCC(OC(=O)C(O)(c2ccccc2)c2ccccc2)CC1.Cl (stereo partly drawn)
3. CC(C)C[C@H](N)C(=O)OC(C)OC(=O)N1CCC(OC(=O)C(O)(c2ccccc2)c2ccccc2)CC1.Cl (stereo partly drawn)
4. CC(OC(=O)[C@@H]1CCCN1)OC(=O)N1CCC(OC(=O)C(O)(c2ccccc2)c2ccccc2)CC1.Cl (stereo partly drawn)
5. CC[C@H](C)[C@H](N)C(=O)OC(C)OC(=O)N1CCC(OC(=O)C(O)(c2ccccc2)c2ccccc2)CC1.Cl (stereo partly drawn)

1: 15.8; 2: 12.2; 3: 5.09; 4: 0.14; 5: 13.9

Cited source: paper PMC9340777
